Conditions: in ethanol, 313.15 K
observable: solubility (mole fraction)

1) CN1CC(O)c2cc(N=NC(N)=O)c(O)cc21 (stereo unspecified) = 6.97e-05

====

Details: in DMSO, 283.15 K
observable: solubility (mole fraction)

1) CN1CC(O)c2cc(N=NC(N)=O)c(O)cc21 (stereo unspecified) = 0.0073

====

Settings: in methanol, 308.15 K
observable: solubility (mole fraction)

1. CN1CC(O)c2cc(N=NC(N)=O)c(O)cc21 (stereo unspecified) = 0.00012
